Tested on: HEK-293T
experimental_protocol: Incucyte cell viability with HEK293T; also: unitless GR value; below 1 slowed growth and below 0 cell loss
Assay type: toxicity, cell-based
protocol_conditions: human, 18 h, 10 µM, compound concentration 10 uM, replicate number 2
Classify as follows. Reported Growth Rate greater than or equal to 0.3: true. Reported Growth Rate below: false.

These recorded examples may help you get a feel for the data.
{"compound": "CCCCCNC(=O)N1CCC(CN(Cc2ccc(Cl)cc2)Cc2ccc([N+](=O)[O-])s2)C1 (centres undefined)", "class": "true"}
{"compound": "Nc1ccc(S(=O)(=O)Nc2ccnn2-c2ccccc2)cc1", "class": "true"}

Item N#CN1CC[C@H](C(=O)Nc2nc3c(s2)CN(C(=O)CN=[N+]=[N-])CC3)C1 with Growth Rate of 0.3 or above?
true

Item Cc1ccccc1Oc1cc(-n2c(=O)cc(C(F)(F)F)[nH]c2=O)c2ccccc2c1Cl with Growth Rate of 0.3 or above?
true

Item COc1cc(-c2cc(-c3cccc(O)c3)cnc2N)cc(OC)c1OC with Growth Rate of 0.3 or above?
true

###

Test system: HEK-293T
experimental_protocol: Incucyte cell viability with HEK293T; also: unitless GR value; below 1 slowed growth and below 0 cell loss
Assay type: toxicity, cell-based
protocol_conditions: human, 12 h, 10 µM, compound concentration 10 uM, replicate number 2
Classify as follows. Reported Growth Rate greater than or equal to 0.8: true. Reported Growth Rate below: false.

{"molecule": "Cc1c(NC(=O)c2ccc(C(C)(C)C)cc2)cccc1-c1cn(C)c(=O)c(Nc2ccc(C(=O)N3CCOCC3)cc2)n1", "target_of_assay": "HEK-293T", "class": "false"}
{"molecule": "COc1cc2ncnc(N[C@H](C)c3ccccc3)c2cc1OC1CCN(S(C)(=O)=O)CC1.Cl", "target_of_assay": "HEK-293T", "class": "true"}
{"molecule": "O=C(NC1CCNCC1)c1n[nH]cc1NC(=O)c1c(Cl)cccc1Cl", "target_of_assay": "HEK-293T", "class": "false"}

Item CC(=O)O.NCCCc1c(C(=O)O)[nH]c2ccc(C(=O)Nc3ccccc3)cc12 with Growth Rate of 0.8 or above?
true

Item COC[C@@H](CC(C)C)NC1=N/C(=C\c2ccc3ncsc3c2)C(=O)N1C with Growth Rate of 0.8 or above?
false

Item COC[C@@H](C)N[C@H]1CC[C@H](Nc2cc(-c3cccc(NCC4(C#N)CCOCC4)n3)c(Cl)cn2)CC1 with Growth Rate of 0.8 or above?
false

Item O[C@]1(C(F)(F)F)CCCC[C@H]1Nc1ccc(F)cc1 with Growth Rate of 0.8 or above?
true

Item C/C=C1\C(=O)CC2C3CCC4=CC(=O)CC[C@]4(C)C3CC[C@]12C (some centres not stated) with Growth Rate of 0.8 or above?
true

Item CCCS(=O)(=O)Nc1ccc(F)c(Nc2ncnc3cnc(-n4cnc(C)c4)nc23)c1F with Growth Rate of 0.8 or above?
false

Item CC(F)(F)CN1C(=O)c2[nH]nc(-c3cccc4[nH]c(=O)oc34)c2C1c1ccc(Oc2cc(C(F)(F)F)cc(C(F)(F)F)c2)cc1 (configuration not stated) with Growth Rate of 0.8 or above?
false

Item CC(C)n1cc(-c2ccc(N3CCN(C)CC3)c(NC(=O)c3ccc(-c4ccncc4)o3)c2)cn1 with Growth Rate of 0.8 or above?
false

Item C[C@@H]1CC(=O)N(C2CC2)N=C1c1ccc(NC(=O)N2Cc3ccncc3C2)cc1 with Growth Rate of 0.8 or above?
false

Item Cc1nc2c(cc1F)c(-c1nnc3c(n1)NC(=O)C3(C)C)nn2Cc1cccc(F)c1F with Growth Rate of 0.8 or above?
false

Item CC(=O)c1ccc2c(c1)/C(=C(/NC1CCN(C)CC1)c1ccc3c(c1)OCO3)C(=O)N2 with Growth Rate of 0.8 or above?
false

Item CC(C)NC(=O)[C@H]1CCC[C@H]1Nc1nc(Nc2ccc(CN(C)C)cc2)ncc1Br.Cl with Growth Rate of 0.8 or above?
false

Item Cc1cc(Cn2c(N3CC4(CNC4)C3)nc3c(N4CCN(C)CC4)cc(Cl)cc32)cc(C)c1F with Growth Rate of 0.8 or above?
false

Item COc1cc(-c2cc([C@H](O)C3CC3)n3ncnc(N)c23)ccc1CO with Growth Rate of 0.8 or above?
false

Item CC(C=CC1=C(C)CCCC1(C)C)=CC=CC(C)=CC(=O)O with Growth Rate of 0.8 or above?
true

Item Cn1c(=O)n(CCCO)c(=O)c2c1nc(Oc1cccc(Cl)c1)n2Cc1ccc(Cl)cc1 with Growth Rate of 0.8 or above?
false

###

Test system: HEK-293T
experimental_protocol: Incucyte cell viability with HEK293T; also: unitless GR value; below 1 slowed growth and below 0 cell loss
Assay type: toxicity, cell-based
protocol_conditions: human, 18 h, 10 µM, compound concentration 10 uM, replicate number 1
Growth Rate reference
// response body must contain only the number

Under HEK-293T: Growth Rate value of COc1c(-c2cn(C3CCC(=O)NC3=O)nn2)csc1C(=O)N1CCCC1 (configuration not stated) ?
0.73

###

Growth Rate reference
System: HEK-293T
experimental_protocol: Incucyte cell viability with HEK293T; also: unitless GR value; below 1 slowed growth and below 0 cell loss
Type: toxicity, cell-based
protocol_conditions: human, 12 h, 10 µM, compound concentration 10 uM, replicate number 1
// response body must contain only the number

Would you please look over these solved cases?
{"molecule": "CCN(CC)C/C=C/C(=O)Nc1cc2c(Nc3ccc(F)c(Cl)c3)ncnc2cc1OCC1CC1", "target_of_assay": "HEK-293T", "endpoint_value": -0.39}
{"molecule": "CC(C)c1nc2c(c3c1[C@H](c1ccc(C(F)(F)F)cc1)OC31CCOCC1)[C@H](O)CC(C)(C)C2", "target_of_assay": "HEK-293T", "endpoint_value": 0.02}
{"molecule": "CC[C@@H](Nc1c(C#N)c(-c2ccc(-c3cccc(C)c3F)cc2)nc2cnccc12)C(=O)O", "target_of_assay": "HEK-293T", "endpoint_value": 0.65}
{"molecule": "Cc1ccc(-c2c(C(=O)CF)n(CCCO)c3ncnc(N)c23)cc1", "target_of_assay": "HEK-293T", "endpoint_value": 0.54}

Item under review: Cc1c(C(=O)NCCCN(C)C)sc2ncnc(Nc3ccc(F)cc3OC(C)CF)c12 (centres undefined) . Reported Growth Rate?
-0.29

Item under review: CC(C)c1ccc(/C=N/NC(=O)c2ccc(O)cc2)cc1 . Reported Growth Rate?
0.85

Item under review: CCN(CC)CCO[C@H]1CC[C@@]2(C)C(=CC[C@@H]3[C@@H]2CC[C@]2(C)C(=O)CC[C@@H]32)C1.Cl . Reported Growth Rate?
0.32

Item under review: N#CC[C@H](C1CCCC1)n1cc(-c2ncnc3[nH]ccc23)cn1 . Reported Growth Rate?
0.86

Item under review: CC(=O)O[C@H]1C(=O)[C@@]2(C)[C@H]([C@H](OC(=O)c3ccccc3)[C@]3(O)C[C@H](OC(=O)[C@H](O)[C@@H](NC(=O)c4ccccc4)c4ccccc4)C(C)=C1C3(C)C)[C@]1(OC(C)=O)CO[C@@H]1C[C@@H]2O . Reported Growth Rate?
-0.21

Item under review: COc1cc(N2CCN(C)CC2)ccc1Nc1ncc2c(n1)N(C)c1ccccc1C(=O)N2CC(F)(F)F . Reported Growth Rate?
0.26

Item under review: Oc1c(CN2CCCC2)cc(COCc2ccccc2)c2cccnc12 . Reported Growth Rate?
-0.04

Item under review: CC(=O)NCC(=O)N1[C@@H]2CC[C@H]1c1ccc(Nc3ncc(C(F)(F)F)c(NC4CCC4)n3)cc12 . Reported Growth Rate?
-0.89

Item under review: CN(C(=O)CCOCCOCCOCCOCCNc1cccc2c1C(=O)N(C1CCC(=O)NC1=O)C2=O)[C@H]1CC[C@@]2(C)[C@@H](CC[C@@H]3[C@@H]2CC[C@]2(C)[C@@H](c4ccc5ccncc5c4)CC[C@@H]32)C1 (some centres undefined) . Reported Growth Rate?
0.77

Item under review: Cc1cc(NC(=O)c2cccc(NC(=O)/C=C/CN(C)C)c2)ccc1Nc1nccc(-c2cccnc2)n1 . Reported Growth Rate?
-0.26

###

Test system: HEK-293T
experimental_protocol: Incucyte cell viability with HEK293T; also: unitless GR value; below 1 slowed growth and below 0 cell loss
Assay type: toxicity, cell-based
protocol_conditions: human, 24 h, 10 µM, compound concentration 10 uM, replicate number 1
quantity_measured: Growth Rate

{"molecule": "CCc1cncnc1N1CCN(Cc2nc3cc(C(F)(F)F)ccc3[nH]2)CC1", "Growth Rate": 0.88}

# next molecule below
Under HEK-293T: Growth Rate value of O=C(Nc1snnc1C(=O)Nc1ccc(N2CCCC2)cc1)c1cncc(C(F)(F)F)c1 ?
0.91

###

System: HEK-293T
experimental_protocol: Incucyte cell viability with HEK293T; also: unitless GR value; below 1 slowed growth and below 0 cell loss
Type: toxicity, cell-based
protocol_conditions: human, 24 h, 10 µM, compound concentration 10 uM, replicate number 2
quantity_measured: Growth Rate

Would you please look over these solved cases?
{"compound": "Cc1nc(-c2ccc(C(F)(F)F)cc2)sc1C(=O)NCc1ccc(OC(C)(C)C(=O)O)cc1", "Growth Rate": 0.72}
{"compound": "C[S+](C)[O-] [DIMETHYL SULFOXIDE]", "Growth Rate": 0.69}

# next compound below
Item under review: O=C(O)Cc1cc(I)c(Oc2ccc(O)c(I)c2)c(I)c1 . Reported Growth Rate?
0.69
